Measurement target: β2 (h) (Homo sapiens, UniProt P07550)
Construct: expressed in transfected cells; host or cells: CHO cells
Sequence (P07550 whole entry): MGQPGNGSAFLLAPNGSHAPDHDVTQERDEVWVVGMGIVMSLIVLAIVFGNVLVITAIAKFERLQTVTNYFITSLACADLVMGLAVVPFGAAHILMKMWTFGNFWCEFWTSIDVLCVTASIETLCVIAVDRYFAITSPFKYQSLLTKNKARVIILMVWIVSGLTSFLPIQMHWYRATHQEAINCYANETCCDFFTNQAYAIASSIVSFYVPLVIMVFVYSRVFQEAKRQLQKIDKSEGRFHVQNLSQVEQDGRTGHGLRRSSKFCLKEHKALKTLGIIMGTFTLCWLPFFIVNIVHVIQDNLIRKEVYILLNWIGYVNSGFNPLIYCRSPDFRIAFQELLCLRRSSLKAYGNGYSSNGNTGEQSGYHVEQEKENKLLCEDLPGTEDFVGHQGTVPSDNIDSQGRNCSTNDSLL
Protocol details: Binding β2 (h) (ag)
Condition description: read-out: % Inhibition of Control Specific Binding @ 10 μM
Endpoint label: inhibition at 10 µM

>  <Smiles code>
CC1(C)C(=O)N(c2ccc(C#N)c(C(F)(F)F)c2)C(=S)N1c1ccc(C(N)=O)c(F)c1

>  <Result>
-3%

$$$$
>  <Smiles code>
CNC(=O)c1ccc(N2C(=O)N(c3ccc(C#N)c(C(F)(F)F)c3)C(=O)C2(C)C)cc1F

>  <Result>
-10%

$$$$
>  <Smiles code>
CC1(C)C(=O)N(c2ccc(C#N)c(C(F)(F)F)c2)C(=S)N1c1ccc(C(=O)O)c(F)c1

>  <Result>
6%

$$$$
>  <Smiles code>
CC1(C)C(=O)N(c2ccc(C#N)c(C(F)(F)F)c2)C(=O)N1c1ccc(C(N)=O)c(F)c1

>  <Result>
-6%

$$$$
